Assay: in vitro
Details: human
Measurement label: CC50

Supply measured CC50 of NS(=O)(=O)c1ccc(-c2ccc(/C=C3\SC(=S)N(CCc4ccccc4)C3=O)o2)cc1 in your reply. 13.3 µM

Supply measured CC50 of O=C(O)c1cc(-c2ccc(/C=C3\SC(=S)N(C4CCCCC4)C3=O)o2)ccc1Cl in your reply. > 100 µM

Supply measured CC50 of C=CCN1C(=O)/C(=C/c2ccc(-c3cccc(C(=O)O)c3)o2)SC1=S in your reply. > 100 µM

Supply measured CC50 of O=C1NC(=S)S/C1=C\c1ccc(-c2ccc(C(=O)O)c(Cl)c2)o1 in your reply. > 100 µM

Supply measured CC50 of CN1C(=O)/C(=C/c2ccc(-c3cccc(C(=O)O)c3)o2)SC1=S in your reply. 53 µM
